Origin of measurements: the supplement of paper PMC8728848

glycan array binding signal (z-score) values, listed per item
Molecular target: GlcNAc(b1-2)Man(a1-3)[GlcNAc(b1-4)][GlcNAc(b1-2)Man(a1-6)]Man(b1-4)GlcNAc(b1-4)GlcNAc
Experiment: glycan array binding signal (z-score within array); higher = stronger binding
Details: glycan notation: IUPAC condensed, linker removed
Shown is part of a subset that was picked to be rich in the strongest signals.
Reported endpoint: glycan array binding signal (z-score)

{"Binder": "RobpsCRA (Robinia pseudoacacia) (protein) IKGGYWYSGSGLAVSDINPSHFTHLFCAFADLDPNTNKLTISSSNAAAFSTFTQTVRAKNPSVKTLLSIGGGGGRALAAVFANMASQASRRKSFIDSSIQLARRNNFHGLDLDWEYPSSDIDKTNFASLIREWRAAVATESSTSGTPALLLSAAVGGSDQITPLKYYPGEAIANNLDWVNVMTYDLYTSDSYPTLTQPPAPLFYPRGIFSADEGITKWIQSGVPESKLALGLPFYGFKWRLSDPNNHGLFAPATQGLGAVKYKDIVNTGGQVEFDSTYVTNYCFKGTDWYGYDDTQSISAKVAYAKQRGLFGYFAWHIEQDSNWALS", "Reported endpoint": "glycan array binding signal (z-score)", "Endpoint result": -0.359}
{"Binder": "CSA (Cytisus scoparius), P29257 (protein) SEELSFSFTKFKTDQKNLILQRDALITPTGKLQLTTVENGKPAAYSLGRALYSTPIHIWDKSTGDEASFATFFSFVISDAPNPSTAATDGLAFFLAPADTQPQSAGGYLGLFEKDSSYNSSNQIVAVEFDTYYNSAWDPQTNPHIGIDVNTIKSKKVSSWGFKNGNVATVLITYQPSSKSLVASLVYPSGQTSDKTSYIISANVDLKATVPEWVRIGFSATTGQTDNYIETHDILSWSFKSKLPATKN", "Reported endpoint": "glycan array binding signal (z-score)", "Endpoint result": -0.238}
{"Binder": "Calsepa (Calystegia sepium), P93114 (protein) MAVPMDTISGPWGNNGGNFWSFRPVNKINQIVISYGGGGNNPIALTFSSTKADGSKDTITVGGGGPDSITGTEMVNIGTDEYLTGISGTFGIYLDNNVLRSITFTTNLKAHGPYGQKVGTPFSSANVVGNEIVGFLGRSGYYVDAIGTYNRHK", "Reported endpoint": "glycan array binding signal (z-score)", "Endpoint result": 5}
